# Experiment Description: SMARCA2 (BRM) function activators, confirmation, cell-based, luminescence, triplicate (AID 652260)
# Details: MG213 cells, MMTV-luciferase with dexamethasone, overnight, at 9.1 µM, DMSO wells 0%, reference activator 100%, MG213 cells expressing E1A, Rb sequestered
The whole screen tested about 3,500 compounds, of which about 1,000 (29%) were called active.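 Rule for the calls: active = activation above its plate's cutoff, the mean activation of tested wells plus 3 SD (cut at about 7.9% in these data); inactive = the rest.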 These entries were drawn from the full list.
Result category, one only: active, inactive

## Task Called result for CCCOc1ccc(-c2nc(N)n[nH]2)cc1
## Result inactive

## Task Called result for COc1cccc(C(=O)Nc2nc3ccc(S(C)(=O)=O)cc3s2)c1
## Result inactive

## Task Called result for COc1ccc(-c2csc(Cc3nc(O)cs3)n2)cc1
## Result inactive

## Task Called result for Cc1cc(C)nc(Nc2n[nH]c(-c3ccccc3N)n2)n1
## Result inactive

## Task Called result for Cc1cc(-c2n[nH]c(=S)n2/N=C/C(Br)=C/c2ccccc2)n[nH]1
## Result inactive

## Task Called result for Cc1ccc(N/C=C/C(=O)c2ccccc2)cc1C
## Result inactive

## Task Called result for Cc1n[nH]c(=O)nc1N/N=C/c1cccs1
## Result inactive

## Task Called result for COc1ccc2nc(/N=C(\N)NC(=O)Nc3ccccc3)nc(C)c2c1
## Result inactive

## Task Called result for CCc1cc2c(=O)c(-c3ccon3)c(N)oc2cc1OC
## Result active

## Task Called result for Cc1ccsc1C(=O)N/N=C/c1ccc([N+](=O)[O-])cc1
## Result inactive

## Task Called result for Cc1cc(C(=O)NNC(=S)Nc2ccccc2C)cs1
## Result inactive

## Task Called result for Cc1noc(C)c1S(=O)(=O)N(C)C[C@H]1Oc2c(NC(=O)Nc3ccc4c(c3)OCO4)cccc2C(=O)N([C@H](C)CO)C[C@@H]1C
## Result inactive

## Task Called result for CC(C)(C)NC(=O)C(CCc1ccccc1)n1c(=O)c(-c2ccccc2)nc2ccccc21 (stereo unspecified)
## Result active

## Task Called result for Cc1ccc(-c2nc3ccc(Cl)cn3c2Cc2ccccc2)cc1
## Result inactive

## Task Called result for COc1cc(CN2CCC(C(N)=O)CC2)ccc1OCc1ccccc1
## Result active

## Task Called result for CCCC(=O)N1c2ccc(-c3csc(N)n3)cc2CC1C (stereo unspecified)
## Result active

## Task Called result for COc1cccc(-c2nc3cc(C)ccc3o2)c1
## Result inactive

## Task Called result for CCOC(=O)c1c(C)[nH]c(C2=NNC(=NC(C)COC)SC2)c1C (stereo unspecified)
## Result active

## Task Called result for CCCSC(=S)NC1CCS(=O)(=O)C1 (stereo unspecified)
## Result inactive

## Task Called result for Cc1ccnc(NC(=O)C2CCN(S(=O)(=O)c3c(C)c(C)cc(C)c3C)CC2)c1
## Result inactive

## Task Called result for CN(C)c1nc(=Nc2cccc(Cl)c2)ss1
## Result inactive

## Task Called result for Fc1ccc(/C=N/Nc2nc(-c3cccnc3)nc3ccccc23)cc1
## Result inactive

## Task Called result for O=C(O)c1ccc(COc2c(F)c(F)cc(F)c2F)o1
## Result inactive

## Task Called result for CC(=O)Oc1ccc(C(=O)Nc2nccs2)cc1
## Result inactive

## Task Called result for CCC(=O)Nc1ccc2nn(-c3ccc(F)cc3)nc2c1
## Result active

## Task Called result for O=C(CCCCCn1c(=S)[nH]c2ccsc2c1=O)NC1CCCCC1
## Result inactive

Cited source: PubChem BioAssay AID652260
